Values compiled from the supplement of paper PMC10567573.

B1: CPOX (parent)
chain: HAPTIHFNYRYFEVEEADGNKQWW

variants of: B1; assay: protein stability index of a GFP-peptide fusion (GPS, HEK-293T) (PSI 1-6); higher = more stable; conditions: c terminus: a fixed tail appended;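 note: lentivirally expressed fusions sorted by FACS into six bins by GFP to DsRed ratio, PSI derived from sequencing read proportions per bin multiplied by bin number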
Entries annotated with measured protein stability index
Respond using a number only.

Example entries begin here.
- VARIANT KEY: "F7P"
  protein stability index: 2.8
- VARIANT KEY: "E13S"
  protein stability index: 1.45
- VARIANT KEY: "H1E"
  protein stability index: 2.42

In: Data request, read-out protein stability index, for A2R
Out: 2.73

In: Query: protein stability index; subject: F12W
Out: 1.99

In: Fill blank: measured protein stability index of the variant T4G is ____.
Out: 2.57

In: Field request: protein stability index | item: R10V
Out: 2.48

In: If you can, please state the reported protein stability index value of Y9V .
Out: 2.25

In: Need protein stability index of W23F , thanks.
Out: 2.04
